B1: 5KPH (parent)
chain: EEKRQVKQVAKEKLLEQSPNSKVQVRRVQKQGNTIRVELELRTNGKKENYTVEVERQGNTWTVKRITRT

Variants of: B1
Assay: folding stability dG (cDNA display proteolysis); higher = more stable
Details: PBS, room temperature
Respond with 1 (yes) for folding stability dG values of 3 kcal/mol and above, 0 (no) for values below.

// below: answered variants
>>> answer_label("EEKRQVKQVAKEKLLEQSPNSKVQVNRVQKQGNTIRVELELRTNGKKENYTVEVERQGNTWTVKRITRT [R26N]")
"1 (yes)"
>>> answer_label("EEKRQVKQVAKEKLLEQSPNSKVQVRRVQKQGNTIRVELELRTNGKKENYTVEVERQGNYWTVKRITRT [T60Y]")
"1 (yes)"
>>> answer_label("EEKRQVKQVAKEKLLEQSPNSKVQVRRVQKQGNTIRVELELRTNGKKENYTVEVERQCNTWTVKRITRT [G58C]")
"1 (yes)"
>>> answer_label("EEKRQVKQVAKEKLLEQSPNSKVQVRQVQKQGNTIRVELELRTNGKKENYTVEVERQGNTWTVKRITRT [R27Q]")
"1 (yes)"
>>> answer_label("EEKRQVKQVAKEKLLEQSPNSKVQVRRVQKYGNTIRVELELRTNGKKENYTVEVERQGNTWTVKRITRT [Q31Y]")
"1 (yes)"
>>> answer_label("EEKRQVKQVAKEKLLEQSPNSKVQVRRVQKQGNTIRVELELRTNGKKENYTVEVERQGNTWTVKRITCT [R68C]")
"1 (yes)"
>>> answer_label("EEKRQVKQVAKEKLLEQSPNSKVQVRRVQKQGNTIRVELELRTNGKKENYTVEVERQGNTWKVKRITRT [T62K]")
"1 (yes)"
>>> answer_label("EEKRQVKQVAKEKLLEQSPNSKVQVRRVQKQGNTIRVELELRTNGKKFNYTVEVERQGNTWTVKRITRT [E48F]")
"1 (yes)"

I'd appreciate it if you could say whether EEKRQVKQVAKEKLLEQSPNSKVQVRRVQKQGNTIRVELELRTNGKKENYTVEVERQGNTWTVKRIPRT [T67P] has folding stability dG at least equal to 3 kcal/mol.
0 (no)
